Give measured Efm384 MIC for each item. Keep answers brief.
# Test system: Enterococcus faecium EFM.384, Daptomycin resistant mutant (14-A)
# Assay type: cell-based
# ASSAY CONDITIONS: MHBc with 50 mg/L calcium, 18-20 hours at 37° C.
One number for each entry, in µg/mL.

C[C@H](CC(=O)O)[C@@H]1NC(=O)[C@@H](CO)NC(=O)CNC(=O)[C@H](CC(=O)O)NC(=O)[C@@H](C)NC(=O)[C@H](CC(=O)O)NC(=O)[C@H](CCCN)NC(=O)CNC(=O)[C@@H](NC(=O)[C@H](CC(=O)O)NC(=O)[C@@H](CC(N)=O)NC(=O)[C@H](Cc2c[nH]c3ccccc23)NC(=O)CCCCCCC2CCCCC2)[C@@H](C)OC(=O)[C@H](CC(=O)c2ccccc2N)NC1=O :: 8

Now look at this entry.
[Q] Efm384 MIC lookup needed for CCCC1CCC(c2ccc(C(=O)N[C@@H](Cc3c[nH]c4ccccc34)C(=O)N[C@H](CC(N)=O)C(=O)N[C@@H](CC(=O)O)C(=O)N[C@@H]3C(=O)NCC(=O)N[C@@H](CCCN)C(=O)N[C@@H](CC(=O)O)C(=O)N[C@H](C)C(=O)N[C@@H](CC(=O)O)C(=O)NCC(=O)N[C@H](CO)C(=O)N[C@@H]([C@H](C)CC(=O)O)C(=O)N[C@@H](CC(=O)c4ccccc4N)C(=O)O[C@@H]3C)cc2)CC1 (single isomer, unassigned) [53 isomer II] , thanks.
[A] 4

* * *

Give measured Sa278 MIC for each item. Keep answers brief.
# System: Staphylococcus aureus SAU.278, Daptomycin resistant mutant (D10)
# Format: cell-based
# ASSAY CONDITIONS: MHBc with 50 mg/L calcium, 18-20 hours at 37° C.
Numbers only, in µg/mL.

# example entries with known answers
CCCCCCCC(C)C(=O)N[C@@H](Cc1c[nH]c2ccccc12)C(=O)N[C@H](CC(N)=O)C(=O)N[C@@H](CC(=O)O)C(=O)N[C@@H]1C(=O)NCC(=O)N[C@@H](CCCN)C(=O)N[C@@H](CC(=O)O)C(=O)N[C@H](C)C(=O)N[C@@H](CC(=O)O)C(=O)NCC(=O)N[C@H](CO)C(=O)N[C@@H]([C@H](C)CC(=O)O)C(=O)N[C@@H](CC(=O)c2ccccc2N)C(=O)O[C@@H]1C (stereo partly drawn) :: 32
CCCCCCCCCC(C)NC(=O)N[C@@H](Cc1c[nH]c2ccccc12)C(=O)N[C@H](CC(N)=O)C(=O)N[C@@H](CC(=O)O)C(=O)N[C@@H]1C(=O)NCC(=O)N[C@@H](CCCN)C(=O)N[C@@H](CC(=O)O)C(=O)N[C@H](C)C(=O)N[C@@H](CC(=O)O)C(=O)NCC(=O)N[C@H](CO)C(=O)N[C@@H]([C@H](C)CC(=O)O)C(=O)N[C@@H](CC(=O)c2ccccc2N)C(=O)O[C@@H]1C (single isomer, unassigned) [14 isomer I] :: 1

Now look at this entry.
[Q] Sa278 MIC lookup needed for "CC(C)Sc1ccc(-c2csc(C(=O)N[C@@H](Cc3c[nH]c4ccccc34)C(=O)N[C@H](CC(N)=O)C(=O)N[C@@H](CC(=O)O)C(=O)N[C@@H]3C(=O)NCC(=O)N[C@@H](CCCN)C(=O)N[C@@H](CC(=O)O)C(=O)N[C@H](C)C(=O)N[C@@H](CC(=O)O)C(=O)NCC(=O)N[C@H](CO)C(=O)N[C@@H]([C@H](C)CC(=O)O)C(=O)N[C@@H](CC(=O)c4ccccc4N)C(=O)O[C@@H]3C)c2)cc1" , thanks.
[A] 4

* * *

# Tested on: Enterococcus faecalis EFS.201 (ATCC 49452)
# Type: cell-based
# ASSAY CONDITIONS: ATCC 49452
MEASURED METRIC: Efs201 MIC
Field note: include the unit after the figure.

# example entries with known answers
CCCCCCCCCCCCCC(=O)N[C@@H](Cc1c[nH]c2ccccc12)C(=O)N[C@H](CC(N)=O)C(=O)N[C@@H](CC(=O)O)C(=O)N[C@@H]1C(=O)NCC(=O)N[C@@H](CCCN)C(=O)N[C@@H](CC(=O)O)C(=O)N[C@H](C)C(=O)N[C@@H](CC(=O)O)C(=O)NCC(=O)N[C@H](CO)C(=O)N[C@@H]([C@H](C)CC(=O)O)C(=O)N[C@@H](CC(=O)c2ccccc2N)C(=O)O[C@@H]1C :: 0.25 µg/mL
CC(C)CCCCCCC(=O)N[C@@H](Cc1c[nH]c2ccccc12)C(=O)N[C@H](CC(N)=O)C(=O)N[C@@H](CC(=O)O)C(=O)N[C@@H]1C(=O)NCC(=O)N[C@@H](CCCN)C(=O)N[C@@H](CC(=O)O)C(=O)N[C@H](C)C(=O)N[C@@H](CC(=O)O)C(=O)NCC(=O)N[C@H](CO)C(=O)N[C@@H]([C@H](C)CC(=O)O)C(=O)N[C@@H](CC(=O)c2ccccc2N)C(=O)O[C@@H]1C :: 4 µg/mL

Now look at this entry.
[Q] Find Efs201 MIC (Enterococcus faecalis EFS.201 (ATCC 49452)) for the entry "CC(C)CCCCCCCCCCC(=O)N[C@@H](Cc1c[nH]c2ccccc12)C(=O)N[C@H](CC(N)=O)C(=O)N[C@@H](CC(=O)O)C(=O)N[C@@H]1C(=O)NCC(=O)N[C@@H](CCCN)C(=O)N[C@@H](CC(=O)O)C(=O)N[C@H](C)C(=O)N[C@@H](CC(=O)O)C(=O)NCC(=O)N[C@H](CO)C(=O)N[C@@H]([C@H](C)CC(=O)O)C(=O)N[C@@H](CC(=O)c2ccccc2N)C(=O)O[C@@H]1C"
[A] 1 µg/mL

* * *

Give measured Sa399 MIC for each item. Keep answers brief.
# Tested on: Staphylococcus aureus SAU.399 (ATCC 43300), Methicillin and Oxacillin Resistant
# Format: cell-based
# ASSAY CONDITIONS: ATCC 43300
Numbers only, in µg/mL.

# example entries with known answers
C[C@H](CC(=O)O)[C@@H]1NC(=O)[C@@H](CO)NC(=O)CNC(=O)[C@H](CC(=O)O)NC(=O)[C@@H](C)NC(=O)[C@H](CC(=O)O)NC(=O)[C@H](CCCN)NC(=O)CNC(=O)[C@@H](NC(=O)[C@H](CC(=O)O)NC(=O)[C@@H](CC(N)=O)NC(=O)[C@H](Cc2c[nH]c3ccccc23)NC(=O)CCCCCCc2ccccc2)[C@@H](C)OC(=O)[C@H](CC(=O)c2ccccc2N)NC1=O :: 16
CCCCCCCCCCCCCCC(=O)N[C@@H](Cc1c[nH]c2ccccc12)C(=O)N[C@H](CC(N)=O)C(=O)N[C@@H](CC(=O)O)C(=O)N[C@@H]1C(=O)NCC(=O)N[C@@H](CCCN)C(=O)N[C@@H](CC(=O)O)C(=O)N[C@H](C)C(=O)N[C@@H](CC(=O)O)C(=O)NCC(=O)N[C@H](CO)C(=O)N[C@@H]([C@H](C)CC(=O)O)C(=O)N[C@@H](CC(=O)c2ccccc2N)C(=O)O[C@@H]1C :: 0.5

Now look at this entry.
[Q] Sa399 MIC lookup needed for "C[C@H](CC(=O)O)[C@@H]1NC(=O)[C@@H](CO)NC(=O)CNC(=O)[C@H](CC(=O)O)NC(=O)[C@@H](C)NC(=O)[C@H](CC(=O)O)NC(=O)[C@H](CCCN)NC(=O)CNC(=O)[C@@H](NC(=O)[C@H](CC(=O)O)NC(=O)[C@@H](CC(N)=O)NC(=O)[C@H](Cc2c[nH]c3ccccc23)NC(=O)CCCCC2CCCCC2)[C@@H](C)OC(=O)[C@H](CC(=O)c2ccccc2N)NC1=O" , thanks.
[A] 1

* * *

# Tested on: Staphylococcus aureus SAU.399 (ATCC 43300), Methicillin and Oxacillin Resistant
# Assay type: cell-based
# ASSAY CONDITIONS: ATCC 43300
Give measured Sa399 MIC for each item. Keep answers brief.
Numbers only, in µg/mL.

C[C@H](CC(=O)O)[C@@H]1NC(=O)[C@@H](CO)NC(=O)CNC(=O)[C@H](CC(=O)O)NC(=O)[C@@H](C)NC(=O)[C@H](CC(=O)O)NC(=O)[C@H](CCCN)NC(=O)CNC(=O)[C@@H](NC(=O)[C@H](CC(=O)O)NC(=O)[C@@H](CC(N)=O)NC(=O)[C@H](Cc2c[nH]c3ccccc23)NC(=O)c2cc(-c3ccc(Cl)cc3)cs2)[C@@H](C)OC(=O)[C@H](CC(=O)c2ccccc2N)NC1=O [Compound 70] :: 8

[Q] Sa399 MIC lookup needed for CCCOc1ccc(-c2ccc(C(=O)N[C@@H](Cc3c[nH]c4ccccc34)C(=O)N[C@H](CC(N)=O)C(=O)N[C@@H](CC(=O)O)C(=O)N[C@@H]3C(=O)NCC(=O)N[C@@H](CCCN)C(=O)N[C@@H](CC(=O)O)C(=O)N[C@H](C)C(=O)N[C@@H](CC(=O)O)C(=O)NCC(=O)N[C@H](CO)C(=O)N[C@@H]([C@H](C)CC(=O)O)C(=O)N[C@@H](CC(=O)c4ccccc4N)C(=O)O[C@@H]3C)cc2)cc1 [Compound 59] , thanks.
[A] 0.5

Data origin, for the record: patent US20150337013A1
